- experimental_system: PRMT5 (Homo sapiens, UniProt O14744)
- Construct: purchased Viva (custom protein)
- Sequence (O14744 whole entry): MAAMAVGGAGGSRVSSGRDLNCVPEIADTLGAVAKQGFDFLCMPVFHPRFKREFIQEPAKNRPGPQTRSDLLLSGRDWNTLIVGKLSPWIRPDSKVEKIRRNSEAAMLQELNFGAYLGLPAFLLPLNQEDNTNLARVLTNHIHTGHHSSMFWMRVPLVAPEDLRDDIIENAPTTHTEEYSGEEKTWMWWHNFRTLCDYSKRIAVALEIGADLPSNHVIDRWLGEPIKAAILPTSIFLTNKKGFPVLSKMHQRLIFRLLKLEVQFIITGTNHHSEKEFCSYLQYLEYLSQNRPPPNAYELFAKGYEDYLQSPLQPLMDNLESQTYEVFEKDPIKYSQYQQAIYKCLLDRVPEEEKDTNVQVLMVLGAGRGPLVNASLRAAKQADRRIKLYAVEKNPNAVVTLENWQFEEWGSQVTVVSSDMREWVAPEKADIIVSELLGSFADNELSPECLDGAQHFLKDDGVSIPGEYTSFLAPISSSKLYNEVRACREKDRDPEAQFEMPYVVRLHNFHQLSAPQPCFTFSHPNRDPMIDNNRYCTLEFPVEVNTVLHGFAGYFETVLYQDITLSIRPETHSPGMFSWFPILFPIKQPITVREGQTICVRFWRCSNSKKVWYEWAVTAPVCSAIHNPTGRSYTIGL
- Sequence (Q9BQA1 whole entry partner): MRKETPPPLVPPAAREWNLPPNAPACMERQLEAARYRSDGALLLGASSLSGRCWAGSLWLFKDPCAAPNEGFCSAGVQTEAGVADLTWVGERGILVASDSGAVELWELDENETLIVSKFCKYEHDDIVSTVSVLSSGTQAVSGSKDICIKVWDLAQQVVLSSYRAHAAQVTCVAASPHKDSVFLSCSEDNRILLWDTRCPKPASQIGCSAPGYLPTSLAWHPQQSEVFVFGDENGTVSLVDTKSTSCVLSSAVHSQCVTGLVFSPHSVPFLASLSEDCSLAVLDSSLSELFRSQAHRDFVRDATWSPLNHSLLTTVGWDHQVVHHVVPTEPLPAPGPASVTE
- measurement_description: PRMT5 biochemical IC50 assay with SAM as cofactor
- condition_notes: PRMT5, SAM as cofactor; read-out: SAM IC50
pIC50: −log10 of the molar value.
// reported pIC50 per item

Sample records with pIC50:
Enter reported pIC50 observed with PRMT5 (Homo sapiens, UniProt O14744) for CCc1cc(NC(=O)C(=O)N2C[C@@H](C)CC[C@@H]2c2cccc(C(F)(F)CCN(C)C)c2)cnc1N [Compound 1381]
> 7.30

Lookup Cc1ncc(NC(=O)C(=O)N2C[C@@H](C)CC[C@@H]2c2ccc3sc(C4CCN(C)CC4)nc3c2)cc1C(N)=O [Compound 1326]
> 7.30

Lookup C[C@@H]1CC[C@H](c2ccccn2)N(C(=O)C(=O)Nc2cncc(C(N)=O)c2)C1 (racemic) [Compound 584]
< 6.30

Lookup Cc1ccc([C@@H]2CC[C@@H](C)CN2C(=O)C(=O)Nc2cncc(C(N)=O)c2)cc1Cl (single isomer, unassigned) [Compound 485]
< 6.30

New cases:
Enter reported pIC50 observed with PRMT5 (Homo sapiens, UniProt O14744) for COc1ncc(NC(=O)C(=O)N2C[C@H](C)CC[C@H]2c2cccs2)cc1C(N)=O (single isomer, unassigned) [Compound 310]
< 6.30

Lookup Cc1cc(NC(=O)C(=O)N2CCCCC2c2cccc3c2CC(=O)N3)cnc1N (centres unmarked) [Compound 116]
6.30 to 7.30

Lookup Cc1cc(NC(=O)C(=O)N2C[C@@H](C)CC[C@@H]2c2cc(F)c3[nH]ncc3c2)cnc1N (single isomer, unassigned) [Compound 1350]
6.30 to 7.30

Lookup Cc1cc(NC(=O)C(=O)N2C[C@H](C)CC[C@H]2c2cccc3[nH]ncc23)cnc1N (racemic) [Compound 690]
6.30 to 7.30

Lookup Cc1cc(NC(=O)C(=O)N2CCCC[C@H]2c2cccnc2)cnc1N (single isomer, unassigned) [Compound 69]
6.30 to 7.30

---

- experimental_system: PRMT5 (Homo sapiens)
- Construct: purchased Viva (custom protein)
- measurement_description: PRMT5 biochemical IC50 assay with SAM as cofactor
- condition_notes: PRMT5, SAM as cofactor; read-out: SAM IC50
pIC50: −log10 of the molar value.
// reported pIC50 per item

Could you tell me which pIC50 is on file for COc1ncc(NC(=O)C(=O)N2C[C@H](C)CC[C@H]2c2cncs2)cc1C(N)=O (single isomer, unassigned) ?
< 6.30

Lookup CNc1ccc([C@@H]2CC[C@@H](C)CN2C(=O)C(=O)Nc2cnc(N)c(C)c2)cn1 (single isomer, unassigned)
6.30 to 7.30

Lookup C[C@@H]1CC[C@@H](c2cnc3ccccc3c2)N(C(=O)C(=O)Nc2cncc(C(N)=O)c2)C1 (racemic)
< 6.30

Lookup CCc1cc(NC(=O)C(=O)N2C[C@H](C)CC[C@H]2c2ccc3sc(NC)nc3c2)cnc1N (single isomer, unassigned)
< 6.30

Lookup Cc1cc(NC(=O)C(=O)N2C[C@@H](C)CC[C@@H]2c2ccc3c(=O)[nH]ccc3c2)cnc1N (single isomer, unassigned)
< 6.30

Lookup Cc1cc(NC(=O)C(=O)N2C[C@H](C)CC[C@H]2c2ccc(N3CCN(C)CC3)cc2)cnc1N (single isomer, unassigned) [Compound 1193]
< 6.30

---

- experimental_system: PRMT5 (Homo sapiens, UniProt O14744)
- Construct: purchased Viva (custom protein)
- measurement_description: PRMT5 biochemical IC50 assay with MTA as cofactor
- condition_notes: PRMT5, MTA as cofactor; read-out: MTA IC50
// reported IC50 per item

Enter reported IC50 observed with PRMT5 (Homo sapiens, UniProt O14744) for CC(=O)N1CCC(c2cccc([C@@H]3CC[C@@H](C)CN3C(=O)C(=O)Nc3cncc(C(N)=O)c3)c2)CC1 (single isomer, unassigned) [Compound 346]
< 50 nM

New cases:
Enter reported IC50 observed with PRMT5 (Homo sapiens, UniProt O14744) for CCc1cc(NC(=O)C(=O)N2C[C@@H](C)CC[C@@H]2c2ccc3nn(C4CN(C)C4)cc3c2)cnc1N (racemic) [Compound 1239]
< 50 nM

Lookup COc1ncc(NC(=O)C(=O)N2C[C@@H](C)CC[C@@H]2c2ccc3sc(C4CC(C)(C)N(C)C(C)(C)C4)nc3c2)cc1C(N)=O (single isomer, unassigned) [Compound 1108]
< 50 nM

Lookup CCc1cc(NC(=O)C(=O)N2C[C@H](C)CC[C@H]2c2ccc(C(N)=O)s2)cnc1N (single isomer, unassigned) [Compound 838]
< 50 nM

---

- experimental_system: PRMT5 (Homo sapiens, UniProt O14744)
- Construct: purchased Viva (custom protein)
- measurement_description: PRMT5 biochemical IC50 assay with MTA as cofactor
- condition_notes: PRMT5, MTA as cofactor; read-out: MTA IC50
measurement_name: IC50

Could you tell me which IC50 is on file for Cc1cc(NC(=O)C(=O)N2C[C@@H](C)CC[C@@H]2c2ccc3snc(C)c3c2)cnc1N (single isomer, unassigned) ?
< 50 nM

Lookup C[C@@H]1CC[C@@H](c2ccc(F)cc2)N(C(=O)C(=O)Nc2cnc(N)c(C(F)F)c2)C1 (racemic)
50 to 500 nM

Lookup Cc1cc(NC(=O)C(=O)N2C[C@@H](C)CC[C@@H]2[C@H]2CC[C@H](O)CC2)cnc1N (single isomer, unassigned)
> 500 nM

Lookup CCc1cc(NC(=O)C(=O)N2C[C@@H](C)CC[C@@H]2c2ccc3sc(CCN(C)C)nc3c2)cnc1N (single isomer, unassigned)
< 50 nM

Lookup COc1ncc(NC(=O)C(=O)N2C[C@@H](C)CC[C@@H]2c2ccc3sc(C(F)(F)F)nc3c2)cc1C(N)=O (single isomer, unassigned)
< 50 nM

New cases:
Could you tell me which IC50 is on file for Cc1cc(NC(=O)C(=O)N2[C@@H](C)CCC[C@H]2c2ccccc2)cnc1N (single isomer, unassigned) [Compound 417] ?
50 to 500 nM

Lookup N#C[C@H]1CCN(C(=O)C(=O)Nc2cncc(C(N)=O)c2)[C@@H](c2ccccc2)C1 (single isomer, unassigned)
< 50 nM

Lookup Cc1cc(NC(=O)C(=O)N2C[C@H](C)CC[C@H]2c2ccc3sc(C(F)(F)F)nc3c2)cnc1N (racemic) [Compound 861]
50 to 500 nM

Lookup CCc1cc(NC(=O)C(=O)N2C[C@@H](C)CC[C@@H]2c2ccc3sc(C4CC5CCC(C4)N5C)nc3c2)cnc1N (stereo partly shown)
< 50 nM

Lookup Cc1cc(NC(=O)C(=O)N2C[C@H](C)CC[C@H]2[C@H]2CC[C@@H](O)CC2)cnc1N (single isomer, unassigned)
50 to 500 nM

Lookup C[C@H]1CC[C@H](C2CCC(F)(F)CC2)N(C(=O)C(=O)Nc2cncc(C(N)=O)c2)C1 (single isomer, unassigned)
50 to 500 nM

Lookup Cc1cc(NC(=O)C(=O)N2C[C@H](C)CC[C@H]2c2cccc3[nH]ncc23)cnc1N (racemic) [Compound 690]
< 50 nM

Lookup Cc1ncc(NC(=O)C(=O)N2C[C@@H](C)CC[C@@H]2c2ccc3c(c2)CCC(=O)N3)cc1C(F)(F)F (single isomer, unassigned)
> 500 nM

Lookup COc1ncc(NC(=O)C(=O)N2C[C@@H](C)CC[C@@H]2c2ccc3sc(CCN(C)C)nc3c2)cc1C(N)=O (single isomer, unassigned) [Compound 1146]
< 50 nM

Lookup C[C@@H]1CC[C@@H](c2cnc3c(c2)CCC(=O)N3)N(C(=O)C(=O)Nc2cncc(C(N)=O)c2)C1 (racemic)
50 to 500 nM

Lookup COc1ncc(NC(=O)C(=O)N2C[C@@H](C)CC[C@@H]2c2ccc3[nH]c(=O)ccc3c2)cc1C(N)=O (single isomer, unassigned)
< 50 nM

Lookup Cc1csc(C2CCCCN2C(=O)C(=O)Nc2cnc(N)c(C)c2)n1 (stereo not shown)
< 50 nM

---

- experimental_system: PRMT5 (Homo sapiens)
- Construct: purchased Viva (custom protein)
- measurement_description: PRMT5 biochemical IC50 assay with no cofactor
- condition_notes: PRMT5, no cofactor; read-out: No Cofactor/rel IC50
measurement_name: IC50

Could you tell me which IC50 is on file for Cc1cc(NC(=O)C(=O)N2C[C@@H](C)CC[C@@H]2c2cccc(S(C)(=O)=O)c2)cnc1N (single isomer, unassigned) [Compound 901] ?
> 0.5 µM

Lookup CNc1ccc([C@@H]2CC[C@H](C)CN2C(=O)C(=O)Nc2cnc(OC)c(C(N)=O)c2)cn1 (single isomer, unassigned) [Compound 468]
> 0.5 µM

Lookup CCc1cc(NC(=O)C(=O)N2C[C@@H](C)CC[C@@H]2c2ccc3sc(N)nc3c2)cnc1N (single isomer, unassigned) [Compound 996]
< 0.05 µM

Lookup Cc1cc(NC(=O)C(=O)N2C[C@H](C)CC[C@H]2c2ccc(NS(C)(=O)=O)cc2)cnc1C (single isomer, unassigned) [Compound 630]
> 0.5 µM

Lookup CC(=O)Nc1ccc([C@H]2CC[C@H](C)CN2C(=O)C(=O)Nc2cnc(N)c(C)c2)cn1 (single isomer, unassigned) [Compound 915]
< 0.05 µM

Continue with the compound presented below.
Could you tell me which IC50 is on file for CCc1cc(NC(=O)C(=O)N2C[C@H](C)C(F)(F)C[C@H]2c2ccc(C)nc2)cnc1N (single isomer, unassigned) [Compound 935] ?
> 0.5 µM
